# Assay Name: NOMO-1 AML cell viability reduction, primary screen, STK33 inhibitor project, CellTiter-Glo luminescence (AID 2330)
# Condition Description: NOMO-1 AML viability, 72 h, stronger effect = higher value, concentration not given here
Out of some 37,000 compounds screened, about 2,800 (7.6%) were called active. About 1% were inconclusive and are not listed. The entries come from a sample that favours actives as a whole.
Exam item: assign Met to entries whose inhibition is below 20% and Not met to entries at or above 20%. Note that a value of exactly 20% receives Not met.

Use these answered entries as a reference point.
{"Compound": "CC1(C)CC[C@]2(C(=O)O)CC[C@]3(C)C(=CCC4[C@@]5(C)CC[C@H](OC6O[C@H](CO)[C@@H](O)[C@H](O[C@@H]7O[C@H](CO)[C@@H](O)[C@H](O)[C@H]7O)[C@H]6O)C(C)(C)C5CC[C@]43C)[C@@H]2C1 (stereo partly drawn)", "Discrete Label": "Not met"}
{"Compound": "COC(=O)C1=C(C)Nc2c(c(=O)n(C)c(=O)n2C)C1c1cccc(OCc2ccccc2)c1 (stereo not drawn)", "Discrete Label": "Met"}

**Query** For C[C@@H]1CN([C@H](C)CO)C(=O)Cc2cc(NC(=O)Nc3ccc(F)cc3)ccc2O[C@@H]1CN(C)Cc1ccc2c(c1)OCO2 , is the recorded inhibition below the cut-off of 20%?
**Result** Not met

**Query** For CC1(C)C2CC[C@]3(C)C(C(=O)C=C4[C@@H]5C[C@@](C)(C(=O)O)CC[C@]5(C)CC[C@]43C)[C@@]2(C)CC[C@@H]1O (stereo partly drawn) , is the recorded inhibition below the cut-off of 20%?
**Result** Not met

**Query** For C[C@H]1CN([C@@H](C)CO)C(=O)Cc2cc(NC(=O)Nc3ccc4c(c3)OCO4)ccc2O[C@H]1CN(C)Cc1ccc(C(=O)Nc2ccccc2N)cc1 , is the recorded inhibition below the cut-off of 20%?
**Result** Not met

**Query** For C=CC1(C)C=C2CCC3C(C)(C)C(O[C@@H]4O[C@@H](CO)[C@H](O)[C@H]4O)CCC3(C)C2CC1O[C@@H]1O[C@H](C)[C@@H](OC)[C@H](O)[C@H]1O (stereo partly drawn) , is the recorded inhibition below the cut-off of 20%?
**Result** Met

**Query** For CC1OC(OC2C(OC3C(O[C@H]4CC[C@@]5(C)C(CC[C@]6(C)C5CC=C5[C@@H]7CC(C)(C)C[C@@H](O)[C@]7(C)CC[C@]56C)C4(C)C)OC(C(=O)O)C(O)C3O)OC(CO)C(O)C2O)C(O)C(O)C1O (stereo partly drawn) , is the recorded inhibition below the cut-off of 20%?
**Result** Not met

**Query** For CC(C)NC(=O)Nc1ccc2c(c1)CC(=O)N([C@H](C)CO)C[C@H](C)[C@H](CN(C)Cc1ccc3c(c1)OCO3)O2 , is the recorded inhibition below the cut-off of 20%?
**Result** Met

**Query** For C[C@@H]1CN([C@H](C)CO)C(=O)Cc2cc(NC(=O)Nc3ccc4c(c3)OCO4)ccc2O[C@@H]1CN(C)Cc1ccc(C(=O)Nc2ccccc2N)cc1 , is the recorded inhibition below the cut-off of 20%?
**Result** Not met

**Query** For C[C@H]1CN([C@@H](C)CO)C(=O)c2cccc(NS(=O)(=O)c3ccc(F)cc3)c2O[C@@H]1CN(C)Cc1ccncc1 , is the recorded inhibition below the cut-off of 20%?
**Result** Met

**Query** For CC1(C)CC[C@@]2(C(=O)O)C(C1)C1=CCC3[C@@]4(C)CC[C@H](O)C(C)(C)C4CC[C@@]3(C)[C@]1(C)C[C@H]2O (stereo partly drawn) , is the recorded inhibition below the cut-off of 20%?
**Result** Not met

**Query** For C[C@@H]1CN([C@H](C)CO)C(=O)c2cccc(NC(=O)c3cnccn3)c2O[C@@H]1CN(C)Cc1ccncc1 , is the recorded inhibition below the cut-off of 20%?
**Result** Met

**Query** For C[C@H](CO)N1C[C@H](C)[C@H](CN(C)Cc2ccc(C(=O)Nc3ccccc3N)cc2)Oc2ccc(NC(=O)Nc3ccccc3)cc2CC1=O , is the recorded inhibition below the cut-off of 20%?
**Result** Not met

**Query** For COc1ccc(NC(=O)c2ccc(OCC(=O)Nc3ccccc3F)cc2)cc1Cl , is the recorded inhibition below the cut-off of 20%?
**Result** Met

**Query** For COc1ccc(CN(C)C[C@H]2Oc3c(NC(=O)C4CC4)cccc3C(=O)N([C@@H](C)CO)C[C@H]2C)cc1 , is the recorded inhibition below the cut-off of 20%?
**Result** Met

**Query** For COc1ccc(-c2nnc(SCC(=O)O)n2-c2ccccc2)cc1OC , is the recorded inhibition below the cut-off of 20%?
**Result** Met

**Query** For Cc1cc(C(=O)Nc2cccc3c2O[C@@H](CN(C)Cc2ccncc2)[C@@H](C)CN([C@@H](C)CO)C3=O)n(C)n1 , is the recorded inhibition below the cut-off of 20%?
**Result** Met
